# key: entry, value: pKd
target: cIAP-2-Bir3 (Homo sapiens, UniProt Q13489); experiment: Fluorescence polarization binding assay, purified cIAP-2 BIR-3 domain; settings: fluorescence polarization, Table 8, read-out: cIAP-2, Kd(apβ)
Sequence (Q13489 238-349 limits assumed): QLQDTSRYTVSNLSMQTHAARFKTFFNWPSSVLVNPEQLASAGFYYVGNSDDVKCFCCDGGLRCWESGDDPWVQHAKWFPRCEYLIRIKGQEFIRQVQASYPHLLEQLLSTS
pKd: −log10 of the molar value.

molecule	pKd
CNC(C)C(=O)NC(C(=O)N1CCCC1Cc1c(-c2ccc(F)cc2)n(CCOCCOCCOC)c2cc(F)ccc12)C(C)(C)C (centres unmarked)	6.92
CNC(C)C(=O)NC(C(=O)N1CC(OC(C)=O)CC1Cc1c[nH]c2ccccc12)C(C)O (centres unmarked)	7.59
CNC(C)C(=O)NC(C(=O)N1CCCC1Cc1c[nH]c2ccc(C)cc12)C(C)O (centres unmarked)	8.22
CNC(C)C(=O)NC(C(=O)N1CCCC1Cc1c(-c2ccc(C(=O)OC)cc2)n(CCOCCOCCOC)c2cc(F)ccc12)C(C)(C)C (centres unmarked)	8.10
CCC(C)[C@H](NC(=O)[C@H](C)NC)C(=O)N1CCC[C@H]1Cc1c2n(c3ccc(F)cc13)CCn1c-2c(C[C@@H]2CCCN2C(=O)[C@@H](NC(=O)[C@H](C)NC)C(C)CC)c2cc(F)ccc21 (some centres unmarked)	7.85
CNC(C)C(=O)NC(C(=O)N1CC(OC(C)=O)CC1Cc1c[nH]c2ccccc12)C(C)(C)C (centres unmarked)	7.30
CC(C)C(NC(=O)CN)C(=O)N1CC(Oc2ccccc2)CC1Cc1coc2ccccc12 (centres unmarked)	7.48
CNC(C)C(=O)NC(C(=O)N1CCCC1Cc1c(-c2ccc(N3CCOCC3)cc2)n(CCOCCOCCOC)c2cc(F)ccc12)C(C)(C)C (centres unmarked)	6.74

----------
target: cIAP-1-Bir3 (Homo sapiens, UniProt Q13490); experiment: Fluorescence polarization binding assay, purified cIAP-1 BIR-3 domain; settings: BIR-3 domain, fluorescence polarization, Table 8; read-out: cIAP-1, Kd(3pp)
Sequence (Q13490 253-363 limits assumed): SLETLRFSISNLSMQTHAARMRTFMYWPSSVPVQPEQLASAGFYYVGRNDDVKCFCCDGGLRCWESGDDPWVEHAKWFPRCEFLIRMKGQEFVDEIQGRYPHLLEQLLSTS
pKd: −log10 of the molar value.
quantity-name: pKd

compound	experimental-value
CNC(C)C(=O)NC(C(=O)N1CC(OC(C)=O)CC1Cc1c[nH]c2ccccc12)C(C)(C)C (centres unmarked) [I]	7.14
CNC(C)C(=O)NC(C(=O)N1CCCC1Cc1c(-c2ccc(C(=O)OC)cc2)n(CCOCCOCCOC)c2cc(F)ccc12)C(C)(C)C (centres unmarked) [E]	7.80
CNC(C)C(=O)NC(C(=O)N1CC(OC(C)=O)CC1Cc1c[nH]c2ccccc12)C(C)O (centres unmarked) [J]	7.28
CNC(C)C(=O)NC(C(=O)N1CCCC1Cc1c(-c2ccc(F)cc2)n(CCOCCOCCOC)c2cc(F)ccc12)C(C)(C)C (centres unmarked) [F]	7.59
CNC(C)C(=O)NC(C(=O)N1CCCC1Cc1c[nH]c2ccc(C)cc12)C(C)O (centres unmarked) [Compound K]	8.10
CC(C)C(NC(=O)CN)C(=O)N1CC(Oc2ccccc2)CC1Cc1coc2ccccc12 (centres unmarked) [D]	7.77
CNC(C)C(=O)NC(C(=O)N1CCCC1Cc1c(-c2ccc(N3CCOCC3)cc2)n(CCOCCOCCOC)c2cc(F)ccc12)C(C)(C)C (centres unmarked) [G]	6.89
CCC(C)[C@H](NC(=O)[C@H](C)NC)C(=O)N1CCC[C@H]1Cc1c2n(c3ccc(F)cc13)CCn1c-2c(C[C@@H]2CCCN2C(=O)[C@@H](NC(=O)[C@H](C)NC)C(C)CC)c2cc(F)ccc21 (some centres unmarked) [A]	9.30

----------
molecular target: XIAP-Bir3 (Homo sapiens, UniProt P98170); test: Fluorescence polarization binding assay, purified XIAP BIR-3 domain; details: fluorescence polarization, Table 8, read-out: XIAP, Kβ(spp)
Sequence (P98170 241-356 limits assumed): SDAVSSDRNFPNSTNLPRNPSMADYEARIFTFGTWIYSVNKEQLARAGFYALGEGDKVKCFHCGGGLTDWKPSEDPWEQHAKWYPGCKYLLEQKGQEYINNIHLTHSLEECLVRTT
quantity-name: Kd (nM)

>>> df
                                   compound  quantity_name  experimental_value
0  CC(C)C(NC(=O)CN)C(=O)N1CC(Oc2ccccc2)CC1Cc1coc2ccccc12 (stereo not shown) [D]             Kd                 160
1  CNC(C)C(=O)NC(C(=O)N1CC(OC(C)=O)CC1Cc1c[nH]c2ccccc12)C(C)(C)C (stereo not shown) [I]             Kd                 200
2  CNC(C)C(=O)NC(C(=O)N1CCCC1Cc1c(-c2ccc(C(=O)OC)cc2)n(CCOCCOCCOC)c2cc(F)ccc12)C(C)(C)C (stereo not shown) [E]             Kd                  90
3  CNC(C)C(=O)NC(C(=O)N1CCCC1Cc1c[nH]c2ccc(C)cc12)C(C)O (stereo not shown) [Compound K]             Kd                 310

----------
# key: entry, value: pKd
molecular target: XIAP-Bir3 (Homo sapiens); test: Fluorescence polarization binding assay, purified XIAP BIR-3 domain; conditions: fluorescence polarization, Table 8, read-out: XIAP, Kβ(spp)
pKd: −log10 of the molar value.
quantity-name: pKd

molecule	quantity-name	experimental-value
CNC(C)C(=O)NC(C(=O)N1CC(OC(C)=O)CC1Cc1c[nH]c2ccccc12)C(C)C (centres unmarked) [Compound H]	pKd	6.92
CNC(C)C(=O)NC(C(=O)N1CC(OC(C)=O)CC1Cc1c[nH]c2ccccc12)C(C)O (centres unmarked) [J]	pKd	6.34
CNC(C)C(=O)NC(C(=O)N1CCCC1Cc1c(-c2ccc(F)cc2)n(CCOCCOCCOC)c2cc(F)ccc12)C(C)(C)C (centres unmarked) [F]	pKd	6.09
CNC(C)C(=O)NC(C(=O)N1CCCC1Cc1c(-c2ccc(N3CCOCC3)cc2)n(CCOCCOCCOC)c2cc(F)ccc12)C(C)(C)C (centres unmarked) [G]	pKd	6.40
CCC(C)[C@H](NC(=O)[C@H](C)NC)C(=O)N1CCC[C@H]1Cc1c2n(c3ccc(F)cc13)CCn1c-2c(C[C@@H]2CCCN2C(=O)[C@@H](NC(=O)[C@H](C)NC)C(C)CC)c2cc(F)ccc21 (some centres unmarked) [A]	pKd	8.00

----------
target: cIAP-2-Bir3 (Homo sapiens, UniProt Q13489); test: Fluorescence polarization binding assay, purified cIAP-2 BIR-3 domain; details: Table 10, read-out: Kd(App), cIAP-2
pKd: −log10 of the molar value.
# key: entry, value: pKd

compound	pKd
CNC(C)C(=O)NC(C(=O)N1CC(O)CC1Cc1c(-c2ccc(-c3[nH]c4ccccc4c3CC3CC(O)CN3C(=O)C(NC(=O)C(C)NC)C(C)(C)C)cc2)[nH]c2ccccc12)C(C)(C)C (centres unmarked)	8.22
CNC(C)C(=O)NC(C(=O)N1CC(OC(C)=O)CC1Cc1c[nH]c2ccccc12)C(C)C (centres unmarked)	7.34

----------
biological target: cIAP-1-Bir3 (Homo sapiens, UniProt Q13490); assay: Fluorescence polarization binding assay, purified cIAP-1 BIR-3 domain; conditions: BIR-3 domain, Table 10; read-out: Kd(App), c-IAP-1

compound	Kd
CNC(C)C(=O)NC(C(=O)N1CC(O)CC1Cc1c(-c2ccc(-c3[nH]c4ccccc4c3CC3CC(O)CN3C(=O)C(NC(=O)C(C)NC)C(C)(C)C)cc2)[nH]c2ccccc12)C(C)(C)C (centres unmarked) [N]	1 nM
CNC(C)C(=O)NC(C(=O)N1CC(OC(C)=O)CC1Cc1c[nH]c2ccccc12)C(C)C (centres unmarked) [Compound H]	1 nM

----------
target: XIAP-Bir3 (Homo sapiens, UniProt P98170); test: Fluorescence polarization binding assay, purified XIAP BIR-3 domain; conditions: Table 10, read-out: Kd(App), XIAP
pKd: −log10 of the molar value.
# key: entry, value: pKd
quantity-name: pKd

compound	target-system	experimental-value
CNC(C)C(=O)NC(C(=O)N1CC(OC(C)=O)CC1Cc1c[nH]c2ccccc12)C(C)C (centres unmarked)	XIAP-Bir3 (Homo sapiens, UniProt P98170)	6.93
CNC(C)C(=O)NC(C(=O)N1CC(O)CC1Cc1c(-c2ccc(-c3[nH]c4ccccc4c3CC3CC(O)CN3C(=O)C(NC(=O)C(C)NC)C(C)(C)C)cc2)[nH]c2ccccc12)C(C)(C)C (centres unmarked)	XIAP-Bir3 (Homo sapiens, UniProt P98170)	9.00
